Target: human adenosine A1 receptor (Homo sapiens)
Construct: expressed in transfected cells; host or cells: HEK293 cells infected with BacMam (the same paragraph also labels the preparation CHO-hA1)
Experiment: Inhibition binding assay, human adenosine A1 receptor membranes, [3H]DPCPX
Settings: 1 nM [3H]DPCPX, 25° C., 1 h; IC50 converted to Ki with Cheng-Prusoff; read-out: A1 pKi (converted)
Protocol: Inhibition binding assays were performed using 0.2 μg of membranes prepared from HEK293 cells infected with BacMam human adenosine A2A receptor or 1.4 μg of membranes prepared from HEK293 cells infected with BacMam human adenosine A1 receptor. […] Bound radioactivity was determined by liquid scintillation counting and inhibition curves were analysed using a four-parameter logistic equation. […]
observable: Ki

**Q:** Fill in reported Ki for this entry: CCC(c1ccc(F)cn1)n1nc2c(-c3cc(C)nc(CO)c3)c(-c3ccccc3)nc(N)n2c1=O (single isomer, unassigned) [1-46 iso-2]
**A:** > 2.51 µM

**Q:** Fill in reported Ki for this entry: Cc1cc(-c2c(-c3ccccc3)nc(N)n3c(=O)n(CCNC4CCCC(C(=O)NC5CC5)C4)nc23)cc(C)n1 (stereo not drawn) [Example 2-108]
**A:** > 3.98 µM

**Q:** Fill in reported Ki for this entry: CC#Cc1nc(N)n2c(=O)n(CCC(F)(F)F)nc2c1-c1cc(C)nc(C)c1 [Example 3-7]
**A:** > 3.98 µM

**Q:** Fill in reported Ki for this entry: Cc1cc(-c2c(-c3ccccc3)nc(N)n3c(=O)n(Cc4ccc(F)c(O)n4)nc23)cc(CO)n1 [Example 1-48]
**A:** > 2.51 µM

**Q:** Fill in reported Ki for this entry: Cc1cc(-c2c(-c3ccc(F)cc3)nc(N)n3c(=O)n(CCC(F)(F)F)nc23)cc(CO)n1 [Example 2-64]
**A:** > 1.26 µM

**Q:** Fill in reported Ki for this entry: Cc1cc(-c2c(-c3ccccc3)nc(N)n3c(=O)n(CCN4CCN(C)CC4)nc23)cc(C)n1 [Example 2-102]
**A:** > 3.16 µM

* * *

Target: human adenosine A1 receptor (Homo sapiens, UniProt P30542)
Construct: expressed in transfected cells; host or cells: HEK293 cells infected with BacMam (the same paragraph also labels the preparation CHO-hA1)
Sequence (P30542 1-326): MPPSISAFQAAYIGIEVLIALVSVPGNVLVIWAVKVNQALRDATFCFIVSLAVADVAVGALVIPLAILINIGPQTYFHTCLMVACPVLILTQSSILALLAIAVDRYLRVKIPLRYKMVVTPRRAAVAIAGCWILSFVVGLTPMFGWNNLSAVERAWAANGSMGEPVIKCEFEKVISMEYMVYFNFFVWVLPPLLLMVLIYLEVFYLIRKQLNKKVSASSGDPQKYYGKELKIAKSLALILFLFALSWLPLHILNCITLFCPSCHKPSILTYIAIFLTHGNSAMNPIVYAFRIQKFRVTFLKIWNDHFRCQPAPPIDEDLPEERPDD
Assay: Inhibition binding assay, human adenosine A1 receptor membranes, [3H]DPCPX
Conditions: 1 nM [3H]DPCPX, 25° C., 1 h; IC50 converted to Ki with Cheng-Prusoff; read-out: A1 pKi (converted)
Assign Ki to each entry below.
Provide the reading as a plain figure in nM.

**Q:** Check human adenosine A1 receptor (Homo sapiens, UniProt P30542) data and give Ki for COc1cnc(Cn2nc3c(-c4cc(C)nc(CO)c4)c(-c4ccccc4)nc(N)n3c2=O)c(F)c1 .
**A:** 501

**Q:** Check human adenosine A1 receptor (Homo sapiens, UniProt P30542) data and give Ki for Cc1cc(-c2c(-c3ccc(F)cc3)nc(N)n3c(=O)n(CCc4ccccc4)nc23)cc(C)n1 .
**A:** 501

**Q:** Check human adenosine A1 receptor (Homo sapiens, UniProt P30542) data and give Ki for Cc1cc(-c2c(-c3ccccc3)nc(N)n3c(=O)n(Cc4ccncc4)nc23)cc(C)n1 .
**A:** 794

**Q:** Check human adenosine A1 receptor (Homo sapiens, UniProt P30542) data and give Ki for Cc1cc(-c2c(-c3ccccc3)nc(N)n3c(=O)n(Cc4cccnc4-n4cccn4)nc23)cc(C)n1 .
**A:** 100

**Q:** Check human adenosine A1 receptor (Homo sapiens, UniProt P30542) data and give Ki for Cc1cc(-c2c(-c3ccccc3)nc(N)n3c(=O)n(C(C)c4cc(F)ccc4F)nc23)cc(C)n1 (stereo not drawn) .
**A:** 79.4

**Q:** Check human adenosine A1 receptor (Homo sapiens, UniProt P30542) data and give Ki for Cc1cc(-c2c(-c3ccccc3)nc(N)n3c(=O)n(CC4(Cc5ccccc5)CCNCC4)nc23)cc(C)n1 .
**A:** 12.6

meta.source: patent US12528815B2
